molecular target: TEAD2 (Homo sapiens, UniProt Q15562); test: Thermal shift assay TEAD2; assay type: binding
Sequence (Q15562 whole entry, species assumed): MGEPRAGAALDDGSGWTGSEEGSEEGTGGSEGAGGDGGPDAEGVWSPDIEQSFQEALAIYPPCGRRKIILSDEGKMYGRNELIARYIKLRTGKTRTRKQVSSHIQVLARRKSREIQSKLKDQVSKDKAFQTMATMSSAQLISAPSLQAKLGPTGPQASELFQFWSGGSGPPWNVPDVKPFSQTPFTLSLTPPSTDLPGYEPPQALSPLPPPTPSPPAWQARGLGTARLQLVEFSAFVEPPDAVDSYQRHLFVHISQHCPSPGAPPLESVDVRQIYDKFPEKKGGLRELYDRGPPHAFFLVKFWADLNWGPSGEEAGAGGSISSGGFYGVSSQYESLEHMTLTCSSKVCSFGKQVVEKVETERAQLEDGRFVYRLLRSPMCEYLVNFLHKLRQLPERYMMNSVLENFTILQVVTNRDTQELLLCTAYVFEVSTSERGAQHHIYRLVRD
This section presents compounds with their documented TEAD2 ΔTm values.
# unit: °C | format: bare number

| compound | target | TEAD2 ΔTm, °C |
| --- | --- | --- |
| CNC(=O)[C@@H]1CC1c1cc(Oc2ccc(C(F)(F)F)cc2)cn2ccnc12 (mixture of isomers) | TEAD2 (Homo sapiens, UniProt Q15562) | 6.5 |

Req: Provide TEAD2 ΔTm, system TEAD2 (Homo sapiens, UniProt Q15562), entry Cn1cc2cc(Oc3ccc(C(F)(F)F)cc3)cc(C3C[C@H]3C(=O)NC[C@H]3C[C@@H](O)[C@@H](O)C3O)c2n1 (single isomer, unassigned)
Resp: 4.9

Req: Provide TEAD2 ΔTm, system TEAD2 (Homo sapiens, UniProt Q15562), entry Cn1cc2cc(Oc3ccc(C(F)(F)F)cc3)cc(C3C[C@H]3C(=O)N3CCC(O)CC3)c2n1 (single isomer, unassigned)
Resp: 12.9

Req: Provide TEAD2 ΔTm, system TEAD2 (Homo sapiens, UniProt Q15562), entry COCCNC(=O)[C@@H]1C[C@H]1c1cc(-c2ccc(C(F)(F)F)cc2)cc2c1cnn2C (racemic)
Resp: 0.8

Req: Provide TEAD2 ΔTm, system TEAD2 (Homo sapiens, UniProt Q15562), entry Cn1cc2cc(Oc3ccc(C(F)(F)F)cc3)cc([C@@H]3C[C@H]3C(=O)N3CC4CC3C(=O)N4)c2n1 (single isomer, unassigned)
Resp: 10.6

Req: Provide TEAD2 ΔTm, system TEAD2 (Homo sapiens, UniProt Q15562), entry O=C(O)[C@@H]1C[C@H]1c1cc(Oc2ccc(C(F)(F)F)cc2)cc2c1NCCC2 (racemic)
Resp: 18.2

The origin of these recorded values is patent US12103915B2.
